# ASSAY_METHOD_TEXT: folding stability dG unfold (combined trypsin and chymotrypsin); higher = more stable
folding stability dG unfold of 1 kcal/mol or higher: YES. Under 1 kcal/mol: NO.

RESIDUE_STRING	ASSIGNED_CATEGORY
SAGGKKKKPKKKIKIKIVKVEKKYDKKTGKLKEVRIEIEIEAESEEEAKKLAEELAKKLNIEVEVKKKSAGG [r13_606_TrROS_Hall]	YES
SAGGFEEKVKAGEEVVDVVAPITLPDGTEAVVTRVEPVDDGLLVTLRPPWTGEEVELPLPASEIPKLPSAGG [r13_340_JUSTAS]	YES
SAGGSAGGSAGGGMKTKTTISTHPGPGGKTRVLVEVDPKKGLLTWRDPSDPSATTVVPLGSAGGSAGGSAGG [r7_992_JUSTAS]	NO
SAGGSAGGSAGGKKVYKVPSLEEALELAKKNKGKTVEIEVDGKKYKFNKNGKIVEIEPVKSAGGSAGGSAGG [r7_532_TrROS_Hall]	YES
SAGGKTVVLEFDSVEDLKAALPPGAEVEIVVIREDGSKKTITVPAKDLKLELKPGEKYRVVIKVKPKKSAGG [r13_461_TrROS_Hall]	YES
SAGGSAGGSAGGAPDLSLPDVRPRVLVRNPATGKWYEFTSLEELEREIKSGRAEVLEISSAGGSAGGSAGGS [r10_520_TrMRF]	NO
SAGGLTVTLTDSSGNPVTVETELLPDNTLVLTITRTTPSGKTYTRTGIVSIDNTTINLVSFSEWTEDPSAGG [r13_451_JUSTAS]	YES
SAGGSAGGSKIPPNQFIVRIEIKRRKPNGEKRKHEIIIPVGMPLDTLRDHAPPGYEITDIEVISAGGSAGGS [r12_597_TrROS]	YES
SAGLEDAQKEKRFVIKIEIRHPNGEKVKMTIAFKPGDPEDIRDELRKMGMPPDDLNERNPNLKIDEIEPSAG [r5_430_TrROS]	YES
SAGGSAGGGMTAEELAAKAIEEALKAGETVTVEIEVTNPNGETFTLELTLVVVDPDDPEALEALSAGGSAGG [r6_534_TrROS_Hall]	YES
SAGWKPITAEEIKKLVKEFAEKAPPGDKRPVTVEIRLPLPNGRHWVFTIKVERTDNNVKVKIEVQPYNSAGG [r19_220_TrROS]	YES
